Attribution: patent US20260285924A1

Listing: A375-WT Fitness Score of selected substances
Tested on: A375-WT
MEASUREMENT_PROTOCOL: Pan-Cancer PepTile/PiTile fitness screen (lentiviral 40-mer peptide library, NGS abundance)
Type: cell-based, human
Parameters: key: enrichment of each peptide's NGS abundance, early day vs Day 14
CONDITION: Pan-Cancer library, peptide enrichment day 14 vs day 0
Provide a numeric answer; units are not to be included.

Below, 5 substances whose answers are already recorded.
>>> result_number("CTNNB1_30: 40-mer peptide tile of CTNNB1, AA start position 174, Armadillo domain (MVHQLSKKEASRHAIMRSPQMVSAIVRTMQNTNDVETARC; UniProt P35222 174-213, looked up, fragment)")
"−3.29"
>>> result_number("FER_38: 40-mer peptide tile of FER, AA start position 222, F-BAR domain (LKGIFDEYSQITSLVTEEIVNVHKEIQMSVEQIDPSTEYN; UniProt P16591 222-261, looked up, fragment)")
"−2.21"
>>> result_number("MAD1L1_78: 40-mer peptide tile of MAD1L1, AA start position 462, Coiled Coil domain (ELGGQKQRADMLEMELKMLKSQSSSAEQSFLFSREEADTL; UniProt Q9Y6D9 462-501, looked up, fragment)")
"−4.42"
>>> result_number("BRAF_64: 40-mer peptide tile of BRAF, AA start position 378, CR2 domain (NIDDLIRDQGFRGDGGSTTGLSATPPASLPGSLTNVKALQ; UniProt P15056 378-417, looked up, fragment)")
"−2.28"
>>> result_number("AXIN1_22: 40-mer peptide tile of AXIN1, AA start position 126, RGS domain (KLEPCDSNEEKRLKLARAIYRKYILDNNGIVSRQTKPATK; RGS domain peptide tile; UniProt O15169 126-165, looked up, fragment)")
"−2.88"

Endpoint output: A375-WT Fitness Score of SMARCA4_257: 40-mer peptide tile of SMARCA4, AA start position 1536, Bromodomain (AQTFNLEGSLIYEDSIVLQSVFTSVRQKIEKEDDSEGEES; UniProt P51532 1536-1575, looked up, fragment) . Value? −4.98

Endpoint output: A375-WT Fitness Score of CDKN2B_4: 40-mer peptide tile of CDKN2B, AA start position 18, ANK domain (LASAAARGLVEKVRQLLEAGADPNGVNRFGRRAIQVMMMG; UniProt P42772 18-57, looked up, fragment) . Value? 0.36

Endpoint output: A375-WT Fitness Score of FZD3_55: 40-mer peptide tile of FZD3, AA start position 324, Transmembrane domain (IEKKALLFHASAWGIPGTLTIILLAMNKIEGDNISGVCFV; UniProt Q9NPG1 324-363, looked up, fragment) . Value? −3.21

====

Test system: A375-WT
MEASUREMENT_PROTOCOL: Pan-Cancer PepTile/PiTile fitness screen (lentiviral 40-mer peptide library, NGS abundance)
Type: cell-based, human
Parameters: key: enrichment of each peptide's NGS abundance, early day vs Day 14
CONDITION: Pan-Cancer library, peptide enrichment day 14 vs day 0
READOUT: A375-WT Fitness Score
Provide a numeric answer; units are not to be included.

Give A375-WT Fitness Score (A375-WT) of the following substance: DOCK4_114: 40-mer peptide tile of DOCK4, AA start position 678, Armadillo domain (LIKVLKWYVDRITEAERQEHIQEVLKAQEYIFKYIVQSRR; UniProt Q8N1I0 678-717, looked up, fragment) 0.87

Give A375-WT Fitness Score (A375-WT) of the following substance: SUZ12_23: 40-mer peptide tile of SUZ12, AA start position 132, WDB1 domain (FKVDDMLSKVEKMKGEQESHSLSAHLQLTFTGFFHKNDKP; UniProt Q15022 132-171, looked up, fragment) −2.12

Give A375-WT Fitness Score (A375-WT) of the following substance: MYC_65: 40-mer peptide tile of MYC, AA start position 384, bHLH domain (ELKRSFFALRDQIPELENNEKAPKVVILKKATAYILSVQA; UniProt P01106 384-423, looked up, fragment) −2.50

Give A375-WT Fitness Score (A375-WT) of the following substance: SMC3_124: 40-mer peptide tile of SMC3, AA start position 738, Coiled Coil domain (EMKMLKEKRQQSEKTFMPKQRSLQSLEASLHAMESTRESL; UniProt Q9UQE7 738-777, looked up, fragment) −3.08
